# measured-on: hFASN enzyme (full length) (Homo sapiens)
# Construct: 10 μL hFASN enzyme (full length, 300 ng, purified in house); made in house
# Sequence (P49327 whole entry): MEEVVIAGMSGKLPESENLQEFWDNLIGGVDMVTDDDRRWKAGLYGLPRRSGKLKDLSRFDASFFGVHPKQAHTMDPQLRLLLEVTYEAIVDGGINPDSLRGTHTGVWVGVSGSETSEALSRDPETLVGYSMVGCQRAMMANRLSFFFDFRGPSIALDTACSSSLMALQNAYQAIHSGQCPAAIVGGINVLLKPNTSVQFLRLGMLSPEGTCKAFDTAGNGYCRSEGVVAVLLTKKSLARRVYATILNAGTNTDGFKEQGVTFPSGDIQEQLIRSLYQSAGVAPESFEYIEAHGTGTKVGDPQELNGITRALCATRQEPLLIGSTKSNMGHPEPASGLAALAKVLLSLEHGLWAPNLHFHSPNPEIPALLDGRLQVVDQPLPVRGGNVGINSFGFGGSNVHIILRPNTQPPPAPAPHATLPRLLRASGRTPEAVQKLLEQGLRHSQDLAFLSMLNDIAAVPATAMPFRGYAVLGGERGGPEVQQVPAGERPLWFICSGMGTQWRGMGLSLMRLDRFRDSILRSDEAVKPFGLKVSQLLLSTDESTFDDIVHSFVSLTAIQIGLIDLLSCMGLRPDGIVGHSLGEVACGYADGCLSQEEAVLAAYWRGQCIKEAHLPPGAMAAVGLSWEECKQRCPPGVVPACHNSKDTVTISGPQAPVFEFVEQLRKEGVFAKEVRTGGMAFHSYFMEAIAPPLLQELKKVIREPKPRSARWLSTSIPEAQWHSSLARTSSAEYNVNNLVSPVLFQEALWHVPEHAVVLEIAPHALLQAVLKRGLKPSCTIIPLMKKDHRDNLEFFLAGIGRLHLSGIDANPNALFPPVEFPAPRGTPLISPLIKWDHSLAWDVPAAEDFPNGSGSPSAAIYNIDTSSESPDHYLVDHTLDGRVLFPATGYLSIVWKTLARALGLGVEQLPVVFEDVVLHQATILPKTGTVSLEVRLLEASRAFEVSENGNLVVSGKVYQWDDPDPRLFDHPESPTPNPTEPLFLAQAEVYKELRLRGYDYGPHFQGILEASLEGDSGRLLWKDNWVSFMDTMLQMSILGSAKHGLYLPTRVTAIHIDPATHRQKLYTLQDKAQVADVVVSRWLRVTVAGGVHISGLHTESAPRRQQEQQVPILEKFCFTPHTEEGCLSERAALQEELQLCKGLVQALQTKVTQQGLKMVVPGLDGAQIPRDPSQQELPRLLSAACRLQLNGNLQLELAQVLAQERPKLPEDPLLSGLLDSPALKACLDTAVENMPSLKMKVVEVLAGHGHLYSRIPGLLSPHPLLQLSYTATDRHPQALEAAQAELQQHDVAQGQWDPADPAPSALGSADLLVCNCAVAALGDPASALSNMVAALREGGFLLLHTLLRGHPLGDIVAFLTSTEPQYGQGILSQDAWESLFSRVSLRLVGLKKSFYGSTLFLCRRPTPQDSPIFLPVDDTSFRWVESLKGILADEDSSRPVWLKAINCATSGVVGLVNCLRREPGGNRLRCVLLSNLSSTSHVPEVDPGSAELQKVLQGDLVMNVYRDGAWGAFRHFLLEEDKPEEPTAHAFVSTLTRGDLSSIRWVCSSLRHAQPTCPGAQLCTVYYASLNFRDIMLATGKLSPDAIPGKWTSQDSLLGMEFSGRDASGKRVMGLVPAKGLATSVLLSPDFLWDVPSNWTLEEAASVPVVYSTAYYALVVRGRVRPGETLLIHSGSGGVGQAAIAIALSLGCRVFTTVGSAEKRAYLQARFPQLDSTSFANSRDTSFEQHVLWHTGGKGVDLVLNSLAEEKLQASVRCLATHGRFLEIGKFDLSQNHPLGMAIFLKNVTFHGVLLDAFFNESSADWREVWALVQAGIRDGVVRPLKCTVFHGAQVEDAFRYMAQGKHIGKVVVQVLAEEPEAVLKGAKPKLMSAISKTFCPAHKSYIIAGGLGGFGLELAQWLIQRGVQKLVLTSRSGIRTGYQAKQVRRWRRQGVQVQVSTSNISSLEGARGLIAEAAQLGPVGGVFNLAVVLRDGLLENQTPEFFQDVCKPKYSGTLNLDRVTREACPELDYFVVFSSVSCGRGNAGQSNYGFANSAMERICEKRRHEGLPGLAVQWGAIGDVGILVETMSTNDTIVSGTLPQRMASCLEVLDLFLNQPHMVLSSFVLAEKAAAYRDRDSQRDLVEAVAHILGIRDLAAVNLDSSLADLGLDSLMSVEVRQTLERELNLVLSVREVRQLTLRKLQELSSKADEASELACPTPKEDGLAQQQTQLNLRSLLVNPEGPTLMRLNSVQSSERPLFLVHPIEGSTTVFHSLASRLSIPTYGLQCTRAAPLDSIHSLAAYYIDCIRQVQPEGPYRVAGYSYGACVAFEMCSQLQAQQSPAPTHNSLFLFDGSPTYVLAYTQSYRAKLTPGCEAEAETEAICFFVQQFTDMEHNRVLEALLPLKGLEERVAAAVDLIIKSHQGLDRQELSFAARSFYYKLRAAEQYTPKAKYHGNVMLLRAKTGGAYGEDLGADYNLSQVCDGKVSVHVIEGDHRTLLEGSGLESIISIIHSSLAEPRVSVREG
# experiment-summary: Fatty Acid Synthase (FASN) inhibition scintillation proximity assay
# Type: biochemical
# experimental-conditions: read-out: Human FASN % inhibition @ 10 μM, 10 μM test compound
inhibition at 10 µM values for the compounds below.

| compound | unit-name | inhibition at 10 µM |
| --- | --- | --- |
| O=C(C1CC1)N1CC(CN2C(=O)C3(CC3)N=C2c2ccc(-c3ccc4nn(CC5CC5)cc4c3)cc2)C1 [compound 501] | % | 52 |
| Cn1cc(-c2ccc(-c3ccc(C4=NC5(CCOCC5)C(=O)N4CC4CN(C(=O)[C@H]5CCCO5)C4)cc3)cc2)cn1 [compound 696] | % | 72 |
| O=C(C1CC1)N1CC[C@@H](CN2C(=O)C3(CCOC3)N=C2c2ccc(-c3ccc4occc4c3)cc2)C1 (stereo partly drawn) [compound 686] | % | 98 |
| O=C(C1CC1)N1CC(CN2C(=O)C3(CC3)N=C2c2ccc(-c3ccc4nncn4c3)cc2)C1 [compound 539] | % | 54 |
| Cc1cc2cc(-c3ccc(C4=NC5(CC5)C(=O)N4CC4CN(C(=O)C5CC5)C4)cc3)ccc2o1 [compound 178] | % | 108 |
| COCCN1CCC2(CC1)N=C(c1ccc(-c3ccc4[nH]ccc4c3)cc1)N(CC1CN(C(=O)C3CC3)C1)C2=O [compound 755] | % | 107 |
| COC(=O)N1CCC2(CC1)N=C(c1ccc(-c3ccc4occc4c3)cc1)N(CC1CN(C(=O)C3CC3)C1)C2=O [compound 16] | % | 72.5 |
| CC(C)N1CCC2(CC1)N=C(c1ccc(-c3ccc4[nH]ncc4c3)cc1)N(CC1CN(C(=O)C3CC3)C1)C2=O [compound 188] | % | 50.4 |
| O=C(C1CC1)N1CC(CN2C(=O)C3(CC3)N=C2c2ccc(-c3ccc(O)cc3)cc2)C1 [compound 50] | % | 64.8 |
| Cc1cc2cc(-c3ccc(C4=NC5(CC5)C(=O)N4C[C@@H]4CCN(C(=O)C5CC5)C4)c(C)c3)ccc2[nH]1 [compound 317] | % | 103 |
| Cn1ncc2cc(-c3ccc(C4=NC5(CCOCC5)C(=O)N4C[C@@H]4CCN(C(=O)C(F)(F)F)C4)cc3)ccc21 [compound 890] | % | 37 |
| Cc1cc(-c2ccc(-c3cnn(C)c3)cc2)ccc1C1=NC2(CC2)C(=O)N1C[C@@H]1CCN(C(=O)C2CC2)C1 [compound 316] | % | 108 |
| Cn1cc(-c2ccc(-c3ccc(C4=NC5(CCOC5)C(=O)N4CC4CN(C(=O)[C@H]5CCCO5)C4)cc3)cc2)cn1 (stereo partly drawn) [compound 712] | % | 69 |
| CC1(C(=O)N2CC(CN3C(=O)C4(CC4)N=C3c3ccc(-c4ccc5cc(F)ccc5c4)cc3F)C2)CC1 [compound 359] | % | 95 |
| Cc1cc(-c2cccc3[nH]ncc23)ccc1C1=NC2(CC2)C(=O)N1C[C@@H]1CCN(C(=O)C2CC2)C1 [compound 306] | % | 98 |
| Cn1cc(-c2ccc(-c3ccc(C4=NC5(CCOCC5)C(=O)N4C[C@@H]4CCN(C(=O)C5CC5)C4)cc3)cc2)cn1 [compound 655] | % | 99 |
| Cc1nc2ccc(-c3ccc(C4=NC5(CC5)C(=O)N4CC4CN(C(=O)C5CC5)C4)c(F)c3)cc2n1C [compound 654] | % | 83 |
| Cn1nccc1-c1ccc(-c2ccc(C3=NC4(CC4)C(=O)N3C[C@@H]3CCN(C(=O)C4(O)CC4)C3)c(F)c2)cc1 [compound 371] | % | 101 |
